Values were extracted from patent US8663701B2.

Test: Concentration of PEA in serum after single oral administration
Format: in vivo, Beagle dogs
Settings: Beagle, dog, serum, po, 15 mg/kg, Time 3 h; 15 mg/Kg oral, fasting
metricName: concentration at 3 h (nM)
The response must be a number in nM with no trailing unit.

## Input Determine its reported concentration at 3 h: CCCCCCCCCCCCCCCC(=O)NCCO [Micronized palmitoylethanolamide, palmitoylethanolamide, reference compound]
## Output 13.4

----------
Assay: Concentration of PEA in serum after single oral administration
Assay type: in vivo, Beagle dogs
Details: Beagle, dog, serum, po, 15 mg/kg, Time 1 h; 15 mg/Kg oral, fasting
metricName: concentration at 1 h (nM)
The response must be a number in nM with no trailing unit.

## Input Determine its reported concentration at 1 h: CCCCCCCCCCCCCCCC(=O)NCCO [Micronized palmitoylethanolamide, palmitoylethanolamide, reference compound]
## Output 22.2
